target: Dual specificity mitogen-activated protein kinase kinase; MEK1/2 (Homo sapiens) (UniProt P36507+Q02750); settings: HEK293, at 10 µM
Sequence (P36507 whole entry, looked up): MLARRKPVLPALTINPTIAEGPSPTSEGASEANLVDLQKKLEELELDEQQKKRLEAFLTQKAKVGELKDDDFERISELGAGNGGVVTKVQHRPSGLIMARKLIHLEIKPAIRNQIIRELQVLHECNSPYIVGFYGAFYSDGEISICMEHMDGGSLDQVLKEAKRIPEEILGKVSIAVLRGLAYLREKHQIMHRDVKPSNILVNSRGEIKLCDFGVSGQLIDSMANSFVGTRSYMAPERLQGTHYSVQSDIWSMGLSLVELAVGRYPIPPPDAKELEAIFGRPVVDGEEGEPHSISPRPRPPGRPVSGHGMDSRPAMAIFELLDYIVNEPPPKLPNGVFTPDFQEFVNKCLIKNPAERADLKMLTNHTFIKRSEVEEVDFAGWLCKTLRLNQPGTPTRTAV
Sequence (Q02750 whole entry, looked up): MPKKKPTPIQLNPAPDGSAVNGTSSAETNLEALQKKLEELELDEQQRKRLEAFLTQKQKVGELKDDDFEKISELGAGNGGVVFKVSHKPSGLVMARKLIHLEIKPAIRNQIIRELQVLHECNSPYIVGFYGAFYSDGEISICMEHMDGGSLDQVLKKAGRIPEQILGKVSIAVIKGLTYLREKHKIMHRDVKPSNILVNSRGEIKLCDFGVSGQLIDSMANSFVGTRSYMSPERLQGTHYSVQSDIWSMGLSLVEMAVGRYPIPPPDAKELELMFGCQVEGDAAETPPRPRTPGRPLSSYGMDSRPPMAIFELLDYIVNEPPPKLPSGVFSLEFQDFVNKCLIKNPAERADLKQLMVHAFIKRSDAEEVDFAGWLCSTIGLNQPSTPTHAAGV
Description: Inhibition of EGF-induced MEK1/2 activity in HEK293 cells assessed as phosphorylated ERK1/2 level at 10 uM after 1 hr by Western blotting relative to control
Below: a set of entries, each annotated with reported inhibition.
Your answer is read as %, so omit the unit and give the number.

Solved entries:
| chemicalStructure | inhibition / % |
| --- | --- |
| CCOCCOc1cc(NCc2ccccc2)c2ncn(C(C)C)c2c1 | 100 |
| CN1CCN(c2ccc3[nH]c(-c4ccc5[nH]c(-c6ccc(O)cc6)nc5c4)nc3c2)CC1 | 22 |
| COc1cc(N)c2c(c1)N(C(C)C)CN2 | 18 |
| COc1cc(NCc2ccccc2)c2ncn(C(C)C)c2c1 | 54 |

Query (compound): "CC(C)n1cnc2c(NCc3ccccc3)cc(OCCCN3CCOCC3)cc21" ; field requested: inhibition
92

Query (compound): "CC(C)Oc1cc(NCc2ccccc2)c2ncn(C(C)C)c2c1" ; field requested: inhibition
0

---

target: Dual specificity mitogen-activated protein kinase kinase 5 (Homo sapiens); settings: HEK293, at 10 µM
Description: Inhibition of EGF-induced MEK5 activity in HEK293 cells assessed as phosphorylated ERK5 level at 10 uM after 1 hr by Western blotting relative to control
readout: inhibition (%)
Your answer is read as %, so omit the unit and give the number.

Solved entries:
| compound | unitSpec | inhibition |
| --- | --- | --- |
| CCCCOc1cc(NCc2ccccc2)c2ncn(C(C)C)c2c1 | % | 5 |
| CN1CCN(c2ccc3[nH]c(-c4ccc5[nH]c(-c6ccc(O)cc6)nc5c4)nc3c2)CC1 [HOECHST 33258] | % | 30 |

Query (compound): "CCOc1cc(NCc2ccccc2)c2ncn(C(C)C)c2c1" ; field requested: inhibition
63

Query (compound): "COc1cc(NCc2ccccc2)c2ncn(C(C)C)c2c1" ; field requested: inhibition
85

Query (compound): "CCCOc1cc(NCc2ccccc2)c2ncn(C(C)C)c2c1" ; field requested: inhibition
24

Query (compound): "CC(C)n1cnc2c(NCc3ccccc3)cc(OCCCN3CCOCC3)cc21" ; field requested: inhibition
0

---

Biological target: Dual specificity mitogen-activated protein kinase kinase 5 (Homo sapiens) (UniProt Q13163);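 further: MEK5 activity stimulated by EGF, read out as phospho-ERK5 on Western blot after 1 h treatment, expressed relative to control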
Sequence (whole entry): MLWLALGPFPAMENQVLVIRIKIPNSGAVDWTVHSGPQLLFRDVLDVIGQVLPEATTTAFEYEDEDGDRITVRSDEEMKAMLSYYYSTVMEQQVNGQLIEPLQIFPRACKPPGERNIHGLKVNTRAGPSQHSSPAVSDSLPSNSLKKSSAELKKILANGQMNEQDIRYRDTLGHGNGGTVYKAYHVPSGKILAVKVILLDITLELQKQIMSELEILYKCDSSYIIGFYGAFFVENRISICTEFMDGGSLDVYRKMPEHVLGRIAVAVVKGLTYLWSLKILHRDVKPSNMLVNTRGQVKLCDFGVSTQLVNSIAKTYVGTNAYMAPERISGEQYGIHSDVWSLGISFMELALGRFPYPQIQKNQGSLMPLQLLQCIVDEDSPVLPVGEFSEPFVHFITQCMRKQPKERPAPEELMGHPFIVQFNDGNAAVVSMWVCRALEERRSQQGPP
Conditions: HEK293, at 10 µM
Label rule, in plain words: inhibition of 50% and up is Met, under 50% is Not met.

Some solved entries appear below for comparison.
| chemicalStructure | labelClass |
| --- | --- |
| N#CC(=C(/N)Sc1ccccc1N)/C(C#N)=C(\N)Sc1ccccc1N | Not met |
| CC(C)Oc1cc(NCc2ccccc2)c2ncn(C(C)C)c2c1 | Not met |
| CCOCCOc1cc(NCc2ccccc2)c2ncn(C(C)C)c2c1 | Met |

Next:
Has "COc1cc(N)c2c(c1)N(C(C)C)CN2" a recorded inhibition greater than or equal to 50%?
Not met

Origin of the recorded values: ChEMBL document CHEMBL1275384
